Data provenance is paper PMC4118869.

Examples of binders with documented pKd follow.
- STUDY_SYSTEM: recombinant H1-HA (D18-I530), A/California/06/2009 (H1N1)pdm09 (Influenza A virus A/California/06/2009 …, UniProt C3W5S1, strain)
- METHOD_SUMMARY: SPR
- CONDITION_CONTEXT: both partners purified
Remember, pKd is on a log scale: it is -log10 of the molar concentration.

- R2b-E8 (VHH, source: E. coli WK6 periplasm, purified (Talon IMAC, Superdex 75 SEC)) VHH: QVQLVESGGGLVQPGGSLRLSCAASGSFFSRYRMGWYRQAPGEQRELVAGITYDDSTNYAGSVKGRFTISRDNAKNTVHLQMNSLKPEDTAVYYCNLNPPGNLYWGQGTQVTVSS: 8.76
- R1a-C5 (VHH, source: E. coli WK6 periplasm, purified (Talon IMAC, Superdex 75 SEC)) VHH: QVQLVESGGGLVQPGGSLRLSCAASNDIFSFYTMGWYLQAIGKQREPVAVIGNGGNTNYAESVKGRFTISRDGAKNTAYLQMNSLKPEDTAVYYCMASGPGGLNVWGQGTQVTVSS: 7.43
- R1a-G5 (VHH, source: E. coli WK6 periplasm, purified (Talon IMAC, Superdex 75 SEC)) VHH: QLQLVESGGGLVQPGGSLRLSCAASGSISRIVTMGWYRQASGKERELVAVIGNYGNTNYADSVKGRFTVSRDNAKDTAYLQMNGLNVEDTAIYYCKTSTTTPPYEYWGQGTQVTVSS: 8.23

What value of pKd has been recorded for this entry: R1a-E6 (VHH, source: E. coli WK6 periplasm, purified (Talon IMAC, Superdex 75 SEC)) VHH: QVQLVESGGGLVQPGGSLRLSCAASGFTLGAYAIAWFRQAPGKEREGVSCISPSDSFTEYGDSVKGRFTVSRDNAKNTVYLQMNSLQPEDTAVYYCAADPVCTAGWYRPSRFDLWGQGTQVTVSS 8.00

What value of pKd has been recorded for this entry: R2b-D9 (VHH, source: E. coli WK6 periplasm, purified (Talon IMAC, Superdex 75 SEC)) VHH: QVQLVESGGGLVQPGGSLRLSCLASGSAFSLYTMGWYRQAPGNQRELVAAITSGESTNYADSVKGRFTISRDNAKNTVYLQMNSLKPEDTAVYYCNADPLSTGWGQYSYWGQGTQVTVSS 9.74

What value of pKd has been recorded for this entry: R1a-E5 (VHH, source: E. coli WK6 periplasm, purified (Talon IMAC, Superdex 75 SEC)) VHH: QLQLVESGGGLVQPGGSLRLSCTASGFSLDNYAIGWFRRAPGEEREGVSFITSTSAVTKYADSVKGRFTISRDNAKNTVYLQMTSLKPEDTAVYYCAGTRWVPTMKADEYNYWGQGTQVTVSS 9.10

What value of pKd has been recorded for this entry: R2a-H9 (VHH, source: E. coli WK6 periplasm, purified (Talon IMAC, Superdex 75 SEC)) VHH: QVQLVESGGGLVQPGGSLRLSCAASTNIASFYTMGWYRQTPGQQRDVVAVIGNGGNTNYADSVKGRFTISRDGAKNTAHLQMNSLKPEDTDVYYCKASGPGGVILWGQGTQVTVSS 8.56
